- Tested on: BT-549 breast
- ASSAY_PROCEDURE: NCI tumour cell line growth inhibition, 48 h
This listing pairs molecules with measured TGI.

| MOLECULE | EXPERIMENTAL_TARGET | RESULT_UNIT | COMPARISON_OPERATOR | TGI |
| --- | --- | --- | --- | --- |
| COC(=O)[C@H](Cc1ccccc1)NC(=O)N(CCNC(=O)OC(C)(C)C)c1ccccc1 | BT-549 breast | µM | > | 100 |
| O=C(N/N=C/c1ccncc1)c1ccc(F)cc1 | BT-549 breast | µM | > | 40 |
| Cc1c(Cl)c(C)c(Cl)c(O)c1Cl | BT-549 breast | µM | = | 81.7 |
| O=C(NN1C(=O)CSC1c1c(Cl)cccc1Cl)C(O)c1ccccc1 (stereo not given) | BT-549 breast | µM | > | 100 |
| O=c1/c(=C\c2ccc(Br)cc2)sc2n1C(c1ccc(Br)cc1)C1=C(N=2)c2ccc3ccccc3c2OCC1 (stereo not given) | BT-549 breast | µM | > | 100 |
| CCCCOC(=O)c1c(C)[nH]c(/C=C2\N=C(c3ccc[nH]3)C=C2OC)c1C | BT-549 breast | µM | = | 12.1 |
| Cc1cccc(N=N/C(=N\NC(=O)c2cc(Cl)ccc2O)c2ccc(N(CCC#N)CCC#N)cc2C)c1 | BT-549 breast | µM | > | 100 |
| O=C(/C=C/C=C/c1ccc2c(c1)OCO2)N/N=C\c1ccc(O)cc1O | BT-549 breast | µM | = | 7.49 |
| C#CCn1c(=O)ccn(/C(=C/C(=O)OCC)C(=O)OCC)c1=O | BT-549 breast | µM | = | 23.2 |
| CC(=O)N1N=C(c2ccc(C)cc2)CC1c1cn(-c2ccccc2)nc1-c1cccc(Nc2ccnc3cc(Cl)ccc23)c1 (stereo not given) | BT-549 breast | µM | > | 100 |

---

- Tested on: OVCAR-5 ovarian
- ASSAY_PROCEDURE: NCI tumour cell line growth inhibition, 48 h
Returns yes if the recorded TGI is greater than or equal to 30 µM, and no otherwise.

| COMPOUND | CLASS |
| --- | --- |
| C=C(Br)COc1ccc2c(C)cc(=O)oc2c1 | yes |
| CC[C@@H](C)/C=C(C)/C=C/C(=O)c1c(O)c(-c2ccc(O)cc2)cn(OC2CC(=O)CCC(C)OC(=O)CC2O)c1=O (stereo not given in full) | no |
| CCOC(=O)C(=O)C(C#N)c1ccc(Cl)cc1 (stereo not given) | yes |
| CCCCOC(=O)c1c(C)[nH]c(/C=C2\N=C(c3ccc[nH]3)C=C2OC)c1C | no |
| O=c1/c(=C\c2ccc(Br)cc2)sc2n1C(c1ccc(Br)cc1)C1=C(N=2)c2ccc3ccccc3c2OCC1 (stereo not given) | yes |
| O=C(NC(OCc1ccccc1)(C(F)(F)F)C(F)(F)F)OCc1ccccc1 | no |
| O=C(CN1CCN(C(=O)c2ccco2)CC1)Nc1ccc(Cl)cc1C(=O)c1ccccc1Cl | yes |
| CC[As](CC)SCC1OC(OC(C)=O)C(OC(C)=O)C(OC(C)=O)C1OC(C)=O (stereo not given) | yes |
| NC1NCCC(=O)N1CCc1c[nH]c2ccccc12 (stereo not given) | yes |
| Cn1c(=O)n(C2(C)CSC2)c2ccccc21 | yes |

---

- Test system: LOX IMVI melanoma
- ASSAY_PROCEDURE: NCI tumour cell line growth inhibition, 48 h

| COMPOUND | RESULT_UNIT | COMPARISON_OPERATOR | TGI |
| --- | --- | --- | --- |
| O=C1OC(c2ccccc2Br)=N/C1=C/c1ccccc1 | µM | = | 38.8 |
| CCn1ncc(N=O)c1N | µM | > | 100 |
| COC(=O)[C@]12CC[C@@H](C)[C@H](C)[C@@H]1C1=CC[C@@H]3[C@@](C)(CC#N)C4=C(C[C@@]3(C)[C@]1(C)CC2)OC[C@]4(C)C=O | µM | = | 13.3 |
| c1ccc(CC(Nc2cccnc2)c2ccccc2)cc1 (configuration not stated) | µM | = | 31.9 |
| O=C(Nc1ccc(F)cc1)c1cc2c(cc1Cl)Sc1nccn1S2(=O)=O | µM | > | 100 |
| O=c1n(CC2CS2)c2ccccc2n1CC1CS1 (configuration not stated) | µM | > | 100 |
| NS(=O)(=O)c1ccc(NC(=O)c2ccc3nc4ccccc4c(Nc4ccc(S(N)(=O)=O)cc4)c3c2)cc1 | µM | > | 100 |
| COc1c(B(O)O)cccc1-c1nc2c(F)cc3n[nH]c(C)c3c2c2c1CCCC2 | µM | = | 4.14 |
| COc1ccc(/C=C/C(=O)CCN2CCN(CCC(=O)/C=C/c3ccc(OC)cc3)CC2)cc1 | µM | = | 11.1 |
| Cn1c(=S)[nH]c(N)c(Cc2ccccc2)c1=O | µM | > | 100 |
| COC(=O)c1c2c(cc3c1CC1(C3)Cc3cc4c(c(C(=O)OC)c3C1)CCC4)CCC2 | µM | > | 100 |
| C/C(=N\O)c1cccc(Nc2c3ccccc3nc3occc23)c1 | µM | > | 100 |
| CSC1=Nc2ccccc2N=C(c2ccccc2)C1 | µM | = | 32.2 |
| COc1cc(C(=O)NN=C2c3ccccc3-c3ccccc32)cc(OC)c1OC | µM | = | 49.4 |
| COc1ccc(-c2c3c(nc4nc(SCC(=O)c5ccc(Br)cc5)nc(N)c24)CCCC3)cc1OC | µM | > | 100 |
| COC(=O)C1=CCC2c3[nH]c4ccccc4c3CCN2C1 (configuration not stated) | µM | > | 354 |
| COC(=O)[C@H](Cc1ccccc1)NC(=O)N(CCNC(=O)OC(C)(C)C)c1ccccc1 | µM | > | 100 |
| COc1cc2c(cc1OCCCN1CCN(C(=S)SCCC(C#N)(c3ccccc3)c3ccccc3)CC1)N=C[C@@H]1CCCN1C2=O | µM | = | 2.03 |
| NC(=O)c1csc(-c2ccc(CO)o2)n1 | µM | > | 100 |
| CC(=O)ON=C1C=CC(=C(C#N)c2ccccc2)C=C1 | µM | = | 5.58 |
| CC1CCc2c(sc3ncnc(N/N=C/c4ccc(Cl)cc4)c23)C1 (configuration not stated) | µM | = | 70.6 |
| CCN(CC)C(=O)CC12CCCCC1=Nc1ccccc12 (configuration not stated) | µM | > | 100 |
| CC(=O)N[C@@H](Cc1ccc(OP(=O)(O)O)cc1)C(=O)N[C@H]1CCC(=O)N2CCC[C@@H](C(=O)NC3CCc4ccccc43)N2C1=O (some centres not stated) | µM | > | 25 |
| CC(C)C(=O)/C=C/c1c(Cl)cccc1Cl | µM | = | 7.32 |
| O=C(N/N=C/c1ccncc1)c1ccc(F)cc1 | µM | > | 40 |
| C=CC(=O)N1CCC[C@@H](n2nc(-c3ccc(Oc4ccccc4)cc3)c3c(N)ncnc32)C1 | µM | > | 10 |
| CCOc1ccc2c(c1)C(=O)c1c-2n(CCCN=[N+]=[N-])c(=O)c2cc([N+](=O)[O-])ccc12 | µM | > | 100 |
| O=C(/C=C/C=C/c1ccc2c(c1)OCO2)N/N=C\c1ccc(O)cc1O | µM | = | 10.1 |
| Cc1c(C(=O)c2ccccc2)[n+](=O)c2cc(F)c(F)cc2n1[O-] | µM | = | 3.01 |
| CON[N+]([O-])=NC(C)C | µM | > | 100 |
| CCN(CC)CC(O)c1cc(-c2ccc(Cl)cc2)nc2c(C)c(Cl)ccc12 (configuration not stated) | µM | = | 2.77 |
| COc1ccc(/C=C\c2cc(OC)c(OC)c(OC)c2)c(NS(=O)(=O)c2ccc(F)cc2)c1O | µM | = | 36.8 |
| C[C@@H](c1ccccc1)N1CO[C@@]2(C#Cc3ccc4c(c3)OCO4)CCC[C@@H]12 | µM | = | 25.2 |
| O=C1OCC2=C1C(c1cccc(Cl)c1)c1cc3c(cc1N2CCO)CCC3 (configuration not stated) | µM | = | 13.8 |
| CC(C)=CCc1cc(/C=C/C(=O)O)cc(CC=C(C)C)c1O | µM | > | 100 |
| CC(C)CC1N=C(OCc2ccccc2)OC1=O (configuration not stated) | µM | > | 100 |
| CC1=C(C(=O)Nc2ccc(C)cc2)C(c2cccc([N+](=O)[O-])c2)C(C(=O)Nc2ccc(C)cc2)=C(C)N1 | µM | = | 32.3 |
| NC(CSCSCC(N)C(=O)O)C(=O)O (configuration not stated) | µM | > | 225 |
| CCCCCCCCCCCCc1ccsc1-c1ccc(-c2ccc(-c3sccc3CCCCCCCCCCCC)s2)s1 | µM | > | 100 |
| C=C(C)COc1cc(NC(=S)OC(C)C)ccc1Cl | µM | = | 30.4 |
| CC1=CC[C@@H](C(C)(C)O)C[C@@H]1O | µM | > | 5000 |
| O=C(Nc1ccc(Cl)cc1)c1cc(S(=O)(=O)N2CCNNC2=O)c(S)cc1Cl | µM | > | 100 |
